These data points were gathered from the NIST ThermoML archive (doi:10.1016/j.fluid.2018.05.028).

Settings: 303.15 K; 101 kPa; Liquid; Vibrating tube method
reported.metric: mass density (kg/m3)

compound | unit.name | mass density
CCCCCCCCCCCCCCCC | kg/m3 | 766.4
CCCCO | kg/m3 | 802.13
CCCO | kg/m3 | 795.89
CCCCCCCC/C=C\CCCCCCCC(=O)OCC [ethyl (Z)-9-octadeceneoate] | kg/m3 | 861.6

###

Details: 308.15 K; 101 kPa; Liquid; Single path-length method
reported.metric: speed of sound (m/s)

molecule | speed of sound (m/s)
CCCCCCCC/C=C\CCCCCCCC(=O)OCC [ethyl (Z)-9-octadeceneoate] | 1340.8
CCCO | 1171.6
CCCCCCCCCCCCCCCC | 1301.3
CCCCO | 1206

###

Assay: refractive index (Na D-line) (dimensionless)
Conditions: 308.15 K; 101 kPa; Liquid; Standard Abbe refractometry
reported.metric: refractive index

compound | reported.metric | result.value
CCCCCCCCCCCCCCCC | refractive index | 1.4275
CCCCO | refractive index | 1.3938
CCCO | refractive index | 1.3789
CCCCCCCC/C=C\CCCCCCCC(=O)OCC [ethyl (Z)-9-octadeceneoate] | refractive index | 1.4441

###

Assay: refractive index (Na D-line) (dimensionless)
Conditions: 298.15 K; 101 kPa; Liquid; Standard Abbe refractometry
reported.metric: refractive index

compound | refractive index
CCCCCCCC/C=C\CCCCCCCC(=O)OCC [ethyl (Z)-9-octadeceneoate] | 1.4481
CCCCCCCCCCCCCCCC [hexadecane] | 1.4318
CCCO [propan-1-ol] | 1.3831
CCCCO [butan-1-ol] | 1.3979

###

Settings: 308.15 K; 101 kPa; Liquid; Vibrating tube method
reported.metric: mass density (kg/m3)

compound | mass density [kg/m3]
CCCCCCCC/C=C\CCCCCCCC(=O)OCC [ethyl (Z)-9-octadeceneoate] | 857.97
CCCCO | 798.25
CCCO | 791.82
CCCCCCCCCCCCCCCC | 762.95

###

Conditions: 303.15 K; 101 kPa; Liquid; Single path-length method
reported.metric: speed of sound (m/s)

molecule | speed of sound [m/s]
CCCCCCCCCCCCCCCC [hexadecane] | 1319.8
CCCCCCCC/C=C\CCCCCCCC(=O)OCC [ethyl (Z)-9-octadeceneoate] | 1358.4
CCCCO [butan-1-ol] | 1222.8
CCCO [propan-1-ol] | 1188.6

###

Test: refractive index (Na D-line) (dimensionless)
Details: 303.15 K; 101 kPa; Liquid; Standard Abbe refractometry
reported.metric: refractive index

compound | refractive index
CCCCCCCCCCCCCCCC | 1.4296
CCCCCCCC/C=C\CCCCCCCC(=O)OCC [ethyl (Z)-9-octadeceneoate] | 1.4461
CCCCO | 1.3959
CCCO | 1.381

###

Details: 298.15 K; 101 kPa; Liquid; Single path-length method
reported.metric: speed of sound (m/s)

compound | result.value
CCCO | 1205.7
CCCCCCCC/C=C\CCCCCCCC(=O)OCC [ethyl (Z)-9-octadeceneoate] | 1376.2
CCCCCCCCCCCCCCCC | 1338.5
CCCCO | 1239.6
